Assay: gradient 5% acetonitrile 3 min, to 50% in 2 min, to 85% in 15 min, held 3 min, 100 µL/min
Details: column: Zorbax Extend-C18 2.1 x 50 mm; eluents: water / acetonitrile, 0.1% formic acid
# true (1) = RP-LC retention time below 700 s (exclusive); false (0) = RP-LC retention time at/above 700 s

# COMPOUND, ASSIGNED_CLASS
data = [
    ("COc1ccc(N2CCN(C(=O)C3CCN(c4cnc5nccnc5c4)CC3)CC2)cc1", "true (1)"),
    ("CN1C(=O)C2(c3ccccc31)C(C(=O)Nc1ccc(Br)cc1F)CC1CCCN12 (centres undefined)", "true (1)"),
    ("COc1cccc2c1oc(=O)c1c(NC(C)=O)nc3c(c12)CCCCC3", "false (0)"),
    ("COc1ccc(OC)c(NC(=O)C2CC(=O)N(c3n[nH]c4cccc(F)c34)C2)c1 (centres undefined)", "false (0)"),
    ("Cc1ccccc1N1OC2C(=O)N(c3ccc(F)cc3)C(=O)C2C1c1ccncc1 (centres undefined)", "true (1)"),
    ("CC(C)n1c(=O)sc2cc(S(=O)(=O)N3CCC(C(=O)NCc4ccco4)CC3)ccc21", "false (0)"),
    ("CN1C(=O)c2cccn2CC1CNC(=O)c1n[nH]c(=O)c2ccccc12 (centres undefined)", "false (0)"),
    ("O=C(CSc1ccc(N2CCCC(C(=O)NC3CC3)C2)nn1)Nc1ccc(F)cc1Cl (centres undefined)", "true (1)"),
    ("CCOCCCNC(=O)CCc1cc2cc(OC)ccc2[nH]c1=O", "true (1)"),
    ("CCCCn1c(CN(C)C(=O)c2ccco2)nc2ccccc21", "true (1)"),
    ("Cc1nc(Oc2ccccc2)cc(N2CCN(C(=O)c3c(F)cccc3F)CC2)n1", "false (0)"),
    ("CCSc1ccccc1C(=O)Nc1nnc(Cc2cccs2)o1", "false (0)"),
    ("CN1CCN(CCNC(=O)CN2C(=O)C3CCCCN3c3ccc(C(=O)N(C)C)cc32)CC1 (centres undefined)", "true (1)"),
    ("CC1(C(=O)NCc2ccccc2Cl)Cn2cnc(C(=O)NC3CCCCC3)c2C(=O)N1C1CC1 (centres undefined)", "false (0)"),
    ("Cc1noc(C)c1-c1ccc(S(=O)(=O)NC2CCCCCC2)cc1", "false (0)"),
    ("Cc1ccc(Nc2c(-c3ccc(N(C)C)cc3)nc3ccccn23)cc1", "false (0)"),
    ("COCCNC(=O)c1ccccc1-c1ocnc1C(=O)OC", "true (1)"),
    ("COc1cc(CNC(=O)c2cnc(-c3ccccc3)nc2-c2ccncc2)cc(OC)c1", "false (0)"),
    ("CCc1ccc2[nH]c3c(c(=O)c2c1)CN(CC(=O)NC1CCCCC1)CC3", "true (1)"),
    ("COc1cc(OC)cc(C(=O)NC2CCN(c3cc(-c4cccs4)[nH]n3)C2)c1 (centres undefined)", "false (0)"),
    ("COc1ccc(NC(=O)c2cn(-c3cc(N4CCCC4)ncn3)cn2)c(OC)c1", "false (0)"),
    ("COc1ccc(-n2c(=O)c3sccc3n(Cc3nc(-c4ccc(Cl)c(F)c4)no3)c2=O)cc1", "false (0)"),
    ("CN(C)c1cc(OC2CCN(C(=O)c3cnn4cccnc34)C2)ncn1 (centres undefined)", "true (1)"),
    ("O=C([C@@H]1C[C@H](Oc2ccccc2)CN1C(=O)CC1CCCC1)N1CCCC1", "false (0)"),
    ("COc1ccccc1C(=O)NC1(C(F)(F)F)C(=O)N(CC2CCCO2)C2=C1C(=O)CC(C)(C)C2 (centres undefined)", "false (0)"),
    ("CCCn1cc(S(=O)(=O)Nc2cc(OC)cc(OC)c2)c2cccnc21", "false (0)"),
    ("Cn1cc(CCN2CCC(C(=O)NCc3ccccc3Cl)CC2)c2cccnc21", "true (1)"),
    ("CC(C)(C)c1ccc(-c2cc(C(=O)O)c3ccc(Br)cc3n2)cc1", "false (0)"),
    ("Cc1cccc(-c2nc(Cc3noc(COc4ccccc4)n3)c(C)o2)c1", "false (0)"),
    ("CC1Oc2ccc(-c3csc(NC(=O)c4ccc(F)cc4)n3)cc2NC1=O (centres undefined)", "false (0)"),
    ("Cc1ccc(-c2nnc3ccc(N4CCC(C(=O)NC5CC5)CC4)nn23)cc1", "false (0)"),
    ("COc1cccc(-c2nc3cnccn3c2NCCC(=O)NC2CCN(C)CC2)c1", "true (1)"),
    ("CC(C)N(CCC(=O)c1ccc2ccccc2c1)Cc1ccccc1", "false (0)"),
    ("O=C(Cn1cccc1-c1nc(-c2ccccc2)cs1)NCc1ccco1", "false (0)"),
    ("CCn1c(C(=O)NCc2ccccc2Cl)cc2sc(Cl)cc21", "false (0)"),
]
